# MEASUREMENT_TARGET: T1, β-catenin produced recombinantly in bacteria with N-terminal histidine sequence (Homo sapiens (Human), UniProt P35222 2-781)
# T1 construct: Soluble partner in the ELISA (50-100 ng), detected with antibody PA2
# T1 sequence: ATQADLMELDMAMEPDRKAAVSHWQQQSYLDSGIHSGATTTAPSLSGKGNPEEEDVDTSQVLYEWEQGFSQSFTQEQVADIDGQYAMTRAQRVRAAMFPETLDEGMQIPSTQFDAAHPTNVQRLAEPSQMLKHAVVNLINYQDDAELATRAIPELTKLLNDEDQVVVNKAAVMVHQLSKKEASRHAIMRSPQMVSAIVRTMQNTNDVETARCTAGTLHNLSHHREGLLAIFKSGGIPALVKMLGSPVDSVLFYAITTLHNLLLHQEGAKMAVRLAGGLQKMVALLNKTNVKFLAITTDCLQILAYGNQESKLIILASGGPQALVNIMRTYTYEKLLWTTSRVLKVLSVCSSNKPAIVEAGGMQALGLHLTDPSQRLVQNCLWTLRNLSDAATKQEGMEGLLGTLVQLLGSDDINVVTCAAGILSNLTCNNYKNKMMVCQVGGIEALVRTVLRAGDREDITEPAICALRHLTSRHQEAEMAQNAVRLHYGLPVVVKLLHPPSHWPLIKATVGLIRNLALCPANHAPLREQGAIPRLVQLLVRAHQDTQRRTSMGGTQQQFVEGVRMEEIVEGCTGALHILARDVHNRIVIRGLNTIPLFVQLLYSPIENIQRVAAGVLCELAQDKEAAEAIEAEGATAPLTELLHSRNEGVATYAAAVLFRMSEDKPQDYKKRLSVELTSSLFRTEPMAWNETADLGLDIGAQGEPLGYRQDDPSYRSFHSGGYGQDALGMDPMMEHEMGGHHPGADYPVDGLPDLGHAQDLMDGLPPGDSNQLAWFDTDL
# PROTOCOL_SUMMARY: competition ELISA, LEF-1 coated, β-catenin in solution, detection with antibody PA2
RECORDED_METRIC: pIC50
Schema: pIC50 number; meaning minus log10 of the concentration expressed in molar units.

query: For the binder GGDPELCATDEMIPFKDEGDPQKEK (peptide, UniProt P27782 10-34, looked up, range 10-34; the legend prints 10-34) [synthetic peptide of the minimum binding domain of LEF-1 (10-34)] , what pIC50 is on record?
result: 5.40
